Data origin: the supplement of paper PMC7125110

B1: glmS ribozyme (parent)
chain: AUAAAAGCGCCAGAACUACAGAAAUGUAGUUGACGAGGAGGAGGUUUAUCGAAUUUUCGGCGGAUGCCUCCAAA

variants of: B1; assay: self-cleavage kobs at 640 uM GlcN6P; higher = faster cleavage; RNA array; conditions: with glucosamine-6-phosphate
This sample holds only a part of the variants without activity.
The following variants are shown together with reported self-cleavage kobs at 640 uM GlcN6P values.
quantity.name: self-cleavage kobs at 640 uM GlcN6P

- G38A G41A U45C A52G: < 1e-05 s⁻¹
- C8U U30G: < 1e-05 s⁻¹
- G40A U47G: 0.000547 s⁻¹
- G32A U54C C67U: 0.000136 s⁻¹
- A15U U45A A53C: 0.000941 s⁻¹
- A33U C68G C71A: < 1e-05 s⁻¹
- A36U A39G: < 1e-05 s⁻¹
- A39G C58G G60C: < 1e-05 s⁻¹
- G32C G35A A48U A52U U54C C67U: < 1e-05 s⁻¹
- G9U C34U A39G: < 1e-05 s⁻¹
- G13C U57C: < 1e-05 s⁻¹
- C16A G41C: < 1e-05 s⁻¹
- A33C A52U: < 1e-05 s⁻¹
- G59U C70U: 4.56e-05 s⁻¹
- U56G U69A: 0.000102 s⁻¹
- C8U A33G G37U G43C U54A U56C C67U: < 1e-05 s⁻¹
- U49G C70U: 0.000263 s⁻¹
- C11G A14G G41A G43C: < 1e-05 s⁻¹
- G62C C70U: < 1e-05 s⁻¹
